target.of.assay: T1, J1 DSL-EGF3 soluble recombinant protein (human Jagged 1 amino acids 185-335) (human, UniProt P78504 185-335)
T1 construct: biotinylated in the CD46 ELISA; also called J1-DE3; DSL+EGF1-3
experiment.description: affinity to the immunogen J1-DE3; method not stated
value.type: Kd (nM)
Your answer is read as nM, so omit the unit and give the number.

Completed entries (count: 2):
J1-183D variant 12 (antibody, human IgG1, V domains shown, human IgG1; also called J1-183DV12; V12) VH: QVQLVQSGAEVKKPGASVKVSCKASGYTFTDYAIHWVRQAPGQGLEWMGIINTYYGDSKYAQKFQGRVTMTVDTSTSTAYMELSSLRSEDTAVYYCARGYDGFAYWGQGTLVTVSS VL: DIQMTQSPSSLSASVGDRVTITCRTSENIYSYLTWYQQKPGKAPKLLIYNAKILDSGVPSRFSGSGSGTDFTLTISSLQPEDFATYYCQHHYDIPWTFGGGTKLEIKR :: 2.61
J1-65D variant 12 (antibody, human IgG1, V domains shown, human IgG1; also called J1-65DV12; V12) VH: QVQLVQSGAEVKKPGSSVKVSCKASGYTFTDYEMHWVRQAPGQGLEWMGAIQPGGGGTAYAQKFQGRVTITADKSTSTAYMELSSLRSEDTAVYYCTRRGYDDYPFAYWGQGTLVTVSS VL: DIQMTQSPSSLSASVGDRVTITCRASGNIHNYLAWYQQKPGKAPKLLIYNAKTLADAVPSRFSGSGSGTDYTLTISSLQPEDFATYYCQHFWSAPWTFGQGTKLEIKR :: 0.0806

Consider the record given below.
Query string: Recall and state the measured Kd for J1-183D variant 5 (antibody, human IgG1, V domains shown, human IgG1; also called J1-183DV5; V5) VH: QVQLVQSGAELKKPGASVKVSCKVSGYAFTDYAIHWIRQAPGQGLEWMGIINTYYGDSKYNQKFKDRVTMTVDKSTSTAYMELSSLRSEDTAVYYCARGYDGFAYWGQGTLVTVSS VL: DIQMTQSPSSLSASVGDRVTITCRTSENIYSYLTWYQQKPGKAPKLLIYNAKTLASGVPSRFSGSGSGTDFTLTISSLQPEDFATYYCQHHYDIPWTFGGGTKLEIKR .
Result string: 2.75

// provenance: patent US20160108128A1
